Species on record: Rattus norvegicus
Assay: Open TG-GATES - Regimen: Daily Repeat
Type: toxicity, organism-based, Sprague-Dawley
Design: regimen Daily Repeat, gender Male, age 6 weeks
Details: in vivo, po, 0 mg/kg, […], tissue Blood, route gavage, dose level Control, time 7 day
quantity name: PT (s)
Field format: number, assumed s, no unit text.

The compound C[C@](N)(Cc1ccc(O)c(O)c1)C(=O)O [METHYLDOPA] showed PT equal to 12

The compound Oc1ncnc2[nH]ncc12 [ALLOPURINOL] showed PT equal to 12

The compound CCSCC[C@H](N)C(=O)O [ETHIONINE] showed PT equal to 12.1

The compound C[C@]12CCC(=O)C=C1CC[C@@H]1[C@@H]2CC[C@@]2(C)[C@H]1CC[C@]2(C)O [METHYLTESTOSTERONE] showed PT equal to 13.1

The compound O=C(N[C@H](CO)[C@H](O)c1ccc([N+](=O)[O-])cc1)C(Cl)Cl [CHLORAMPHENICOL] showed PT equal to 14.1

The compound CCN1CCCC1CNC(=O)c1cc(S(N)(=O)=O)ccc1OC (stereo not given) [SULPIRIDE] showed PT equal to 12.8

The compound CN1C(=O)OC(C)(C)C1=O [TRIMETHADIONE] showed PT equal to 13.9

The compound CC(C)C(=O)Nc1ccc([N+](=O)[O-])c(C(F)(F)F)c1 [FLUTAMIDE] showed PT equal to 12.2

The compound CC(=O)Oc1cc(C(C)C)c(OCCN(C)C)cc1C [MOXISYLYTE] showed PT equal to 15.6

The compound CC(=N)S [THIOACETAMIDE] showed PT equal to 11.8

The compound `Nc1nc(N)c2nc(-c3ccccc3)c(N)nc2n1` showed PT equal to 13.3

The compound CCc1oc2ccccc2c1C(=O)c1cc(I)c(O)c(I)c1 [BENZIODARONE] showed PT equal to 11.5

The compound CC(C)(S)[C@@H](N)C(=O)O [PENICILLAMINE] showed PT equal to 13.9

The compound O=C(O)c1cccnc1 [NIACIN] showed PT equal to 16.5

The compound CCC(C)(C)C(=O)O[C@H]1C[C@@H](C)C=C2C=C[C@H](C)[C@H](CC[C@@H]3C[C@@H](O)CC(=O)O3)[C@H]21 [SIMVASTATIN] showed PT equal to 10.9

====

Organism: Rattus norvegicus
Assay: Open TG-GATES - Regimen: Daily Repeat
Assay type: toxicity, organism-based, Sprague-Dawley
Design: regimen Daily Repeat, gender Male, age 6 weeks
Conditions: in vivo, po, 100 mg/kg, […], tissue Blood, route gavage, dose level Low, time 28 day
What Lym was measured for each of the following?
Please format your answer as a value with the unit trailing.

The compound `CC(C)(S)[C@@H](N)C(=O)O` showed Lym equal to 82.8%

The compound `O=C(O)c1cccnc1` showed Lym equal to 83.4%

The compound `O=C(N[C@H](CO)[C@H](O)c1ccc([N+](=O)[O-])cc1)C(Cl)Cl` showed Lym equal to 81%

The compound CCN1CCCC1CNC(=O)c1cc(S(N)(=O)=O)ccc1OC (centres undefined) [SULPIRIDE] showed Lym equal to 76.2%
